# Test system: BJ human skin fibroblast cells
# experimental protocol: eGFP mRNA transfection, BJ cells (96-well)
# Type: cell-based
# measurement context: co-lipid DOPE, ratio 1/2; 150 ng eGFP mRNA; 24 h
Can you tell me Transfection efficiency (eGFP %) BJ for the items I'm about to list?

molecule: CCCCCCCCCCCCCCCCCCC(CCCCCCCCCC)[n+]1ccn(C)c1.[Cl-] (centres unmarked)
tested system: BJ human skin fibroblast cells
observation type: Transfection efficiency (eGFP %) BJ
test value: 80-85%

molecule: CCCCCCC/C=C\CCCCCCCCC(CCCCCCCCCCCCCCCCCC)[n+]1ccn(C)c1.[Cl-] (centres unmarked)
tested system: BJ human skin fibroblast cells
observation type: Transfection efficiency (eGFP %) BJ
test value: 80-95%

molecule: CCCCCCC/C=C\CCCCCCCCC(CCCCCCCCCCCCCC)[n+]1ccn(C)c1 (centres unmarked)
tested system: BJ human skin fibroblast cells
observation type: Transfection efficiency (eGFP %) BJ
test value: 70-85%

molecule: CCCCCCCCCCCCCCCCCCC(CCCCCCCCCCCCCCCCCC)CCCCC(CCCCCCCCCCCCCCCCCC)[n+]1ccn(C)c1.[Cl-] (centres unmarked)
tested system: BJ human skin fibroblast cells
observation type: Transfection efficiency (eGFP %) BJ
test value: 65-75%

Below is a list of molecules. For each, state its recorded Transfection efficiency (eGFP %) BJ.
1. CCCCCCCCCCCCCCCCCCC(CCCCCCCCCCCCCCCCC)C[n+]1ccn(C)c1.[Cl-] (centres unmarked)
2. CCCCCCCCCCCCCCCCC(CCCCCCCCCCCCCCCC)[n+]1ccn(C)c1.[Cl-]
3. CCCCCCCC/C=C\CCCCCCCCC(CCCCC(CCCCCCCCCCCCCC)CCCCCCCCCCCCCC)[n+]1ccn(C)c1.[Cl-] (centres unmarked)
4. CCCCCCCCCCCCCCCCCCC(CCCCC(CCCCCCCCCCCCCC)CCCCCCCCCCCCCC)[n+]1ccn(CCO)c1.[Cl-] (centres unmarked)
5. CCCCCCCCCCCCCCCCCCC(CCCCCCCCCCCCCCCCCC)n1cc[n+](C)c1.[Cl-] [MONI, reference compound]
6. CCCCCCCCCCCCCCC(CCCCCCCCCCCCCC)CCCCC(CCCCCCCCCCCCCC)[n+]1ccn(CCO)c1.[Cl-] (centres unmarked)
7. CCCCCCCCCCCCCCCCCCC(CCCCC(CCCCCCCCCCCCCC)CCCCCCCCCCCCCC)[n+]1ccn(C)c1.[Cl-] (centres unmarked)

Resp:
["65-75%", "60-70%", "90-95%", "90-95%", "50-60%", "90-95%", "90-95%"]

Batch of 2 molecules: report Transfection efficiency (eGFP %) BJ for each.
1. CCCCCCCCCCCCCCC(CCCCCCCCCCCCCC)CCCCC(CCCCCCCCCCCCCC)[n+]1ccn(C)c1.[Cl-] (centres unmarked)
2. CCCCCCCC/C=C\CCCCCCCCC(CCCCC(CCCCCCCCCCCCCC)CCCCCCCCCCCCCC)[n+]1ccn(CC)c1.[Cl-] (centres unmarked)

Resp:
90-95%
90-95%

Req: Fill blank: measured Transfection efficiency (eGFP %) BJ of the molecule CCCCCCCCCCCCCCCCCCC(CCCC(CCCCCCCCCCCCCC)CCCCCCCCCCCCCC)[n+]1ccn(C)c1.[Cl-] (centres unmarked) is ____.
Resp: 90-95%
